- test system: T1, MabBC200-A3 (Homo sapiens)
- T1 chain 1: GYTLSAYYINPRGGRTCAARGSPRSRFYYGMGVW
- T1 chain 2: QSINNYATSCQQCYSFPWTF
- assay procedure: filter; room temperature
- test parameters: hairpin with internal loops
pKd: −log10 of the molar value.
endpoint label: pKd

Record request: pKd value, item RNA (51-120) (ssRNA) RNA: GGGAGGCGGGAGGAUAGCUUGAGCCCAGGAGUUCGAGACCUGCCUGGGCAAUAUAGCGAGACCCCGUUCUCCC
~8.00

Where these numbers come from: patent US20150266975
